# Test system: Ba/F3 P210-BCR-ABL1 RUNX1wt/wt control (mouse)
# Assay summary: drug sensitivity score (DSS) (DSS score); higher = more sensitive (stronger growth inhibition); extreme values may be limits of the assay
Quantity: drug sensitivity score
Answers are plain numbers.

Here is how some compounds turned out for drug sensitivity score.
Oc1nc(-c2ccc(C(F)(F)F)cc2)nc2c1CSCC2: 0
CN1CCN(c2cc(C(=O)Nc3ccc4c(c3)-c3c(c(C(N)=O)nn3-c3ccc(F)cc3)CC4)c(Cl)cn2)CC1: 7.4
C=C(c1ccc(C(=O)O)cc1)c1cc2c(cc1C)C(C)(C)CCC2(C)C: 0
CCCS(=O)(=O)Nc1ccc(F)c(C(=O)c2c[nH]c3ncc(-c4ccc(Cl)cc4)cc23)c1F: 2.85
CC1(C)CCC(c2ccc(Cl)cc2)=C(CN2CCN(c3ccc(C(=O)NS(=O)(=O)c4ccc(N[C@H](CCN5CCOCC5)CSc5ccccc5)c(S(=O)(=O)C(F)(F)F)c4)cc3)CC2)C1: 7.05

Go through the list and state drug sensitivity score for each entry.
1. CC[C@H](CO)Nc1nc(NCc2ccccc2)c2ncn(C(C)C)c2n1
2. COc1cc2c(Oc3ccc4[nH]c(C)cc4c3F)ncnc2cc1OCCCN1CCCC1
3. N#CC1(c2ccc(NC(=O)c3cccnc3NCc3ccncc3)cc2)CCCC1

[0, 0, 0]
